These measurements were taken from ChEMBL document CHEMBL2034867.

- SUBJECT_OF_TEST: Protein-S-isoprenylcysteine O-methyltransferase (Homo sapiens, UniProt O60725)
- Sequence (O60725 whole entry): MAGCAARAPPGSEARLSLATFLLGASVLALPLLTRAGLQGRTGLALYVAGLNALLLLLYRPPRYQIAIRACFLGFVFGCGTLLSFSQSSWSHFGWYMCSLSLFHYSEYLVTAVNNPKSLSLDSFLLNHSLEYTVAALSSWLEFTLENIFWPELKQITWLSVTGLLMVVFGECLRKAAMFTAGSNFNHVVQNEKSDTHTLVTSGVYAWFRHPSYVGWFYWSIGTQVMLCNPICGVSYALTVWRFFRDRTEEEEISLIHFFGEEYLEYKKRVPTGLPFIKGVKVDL
- ASSAY: Inhibition of ICMT in cell free system
READOUT_LABEL: IC50 (µM)

Example entries begin here.
[in] Return IC50 (reported value) for this compound: `COC(=O)CCSC/C=C(\C)CCn1cc(CCc2ccccc2)nn1`
[out] 41

[in] Return IC50 (reported value) for this compound: CC(C)=CCC/C(C)=C/CC/C(C)=C/CSc1ccccc1C(=O)O [SALIRASIB]
[out] 25.5

I = COC(=O)CCSC/C=C(\C)CCn1cc(CCc2ccc(-c3ccccc3)cc2)nn1
II = CC(C)=CC/C(=C\CSC[C@H](NC(=O)c1ccccc1Oc1ccccc1)C(=O)O)CCc1ccc(-c2ccccc2)cc1
III = COC(=O)CCSC/C=C(\C)CCn1cc(CCc2cccc(-c3ccccc3)c2)nn1
[in] Parameters: sort_field (IC50), sort_dir (desc). Field: ranking. Enter the labels in the order requested.
[out] III, II, I

* * *

- SUBJECT_OF_TEST: UniProt:O60725
- ASSAY: Specific activity at ICMT at 10 uM relative to AFC
READOUT_LABEL: Activity (%)

[in] Give Activity for `COC(=O)CCSC/C=C(\C)CCn1cc(CCc2cccc(-c3ccccc3)c2)nn1` tested on UniProt:O60725.
[out] 65

[in] Give Activity for `COC(=O)CCSC/C=C(\C)CCn1cc(CCc2ccccc2)nn1` tested on UniProt:O60725.
[out] 69

[in] Give Activity for `C/C(=C\CSCCC(=O)O)CCn1cc(CCc2ccc(-c3cccc(C#N)c3)cc2)nn1` tested on UniProt:O60725.
[out] 74

[in] Give Activity for `CC(C)=CCC/C(C)=C/CC/C(C)=C/Cc1cn(CCC(=O)O)nn1` tested on UniProt:O60725.
[out] 53

A = CC(C)=CCC/C(C)=C/CCc1cn(CCCC(=O)O)nn1
B = COC(=O)CCSC/C=C(\C)CCn1cc(CC/C=C(\C)CCC=C(C)C)nn1
C = COC(=O)CCSC/C=C(\C)CCn1cc(CCc2ccc(-c3cccc(C#N)c3)cc2)nn1
[in] Parameters: sort_field (Activity), sort_dir (desc). Field: ranking. Enter the labels in the order requested.
[out] A, B, C
(A: 90%, B: 59%, C: 30%)

* * *

- ASSAY: Cytotoxicity against human PA-TU-8902 cells after 5 days by MTT assay
- Type: functional, cell-based
- EXPERIMENTAL_CONDITIONS: PaTu 8902, 120 h
READOUT_LABEL: pIC50
Keep in mind that pIC50 stands for -log10 of concentration in molar terms.

[in] Return pIC50 (reported value) for this compound: `COC(=O)CCSC/C=C(\C)CCn1cc(CCc2ccc(-c3ccccc3)cc2)nn1`
[out] 5.10

* * *

- SUBJECT_OF_TEST: Protein-S-isoprenylcysteine O-methyltransferase (Homo sapiens)
- ASSAY: Specific activity at ICMT at 10 uM relative to AFC
READOUT_LABEL: Activity (%)

Example entries begin here.
[in] Return Activity (reported value) for this compound: `C/C(=C\CSCCC(=O)O)CCn1cc(-c2ccc(C(C)(C)C)cc2)nn1`
[out] 88

[in] Return Activity (reported value) for this compound: `C/C(=C\CSCCC(=O)O)CCn1cc(-c2ccccc2)nn1`
[out] 88

[in] Return Activity (reported value) for this compound: `COC(=O)CCSC/C=C(\C)CCn1cc(CCc2ccc(-c3ccccc3)cc2)nn1`
[out] 14

[in] Return Activity (reported value) for this compound: `C/C(=C\CSCCC(=O)O)CCn1cc(-c2cccc3ccccc23)nn1`
[out] 77

I = C/C(=C\CSCCC(=O)O)CCn1cc(CCC(C)C)nn1
II = C/C(=C\CSCCC(=O)O)CCn1cc(CCc2ccc(-c3ccc(F)cc3)cc2)nn1
[in] Task for the reader: decide whether I or II has the larger Activity. Use the label to indicate which entry you chose.
[out] I

P = C/C(=C\CSCCC(=O)O)CCn1cc(-c2ccsc2)nn1
Q = COC(=O)CCSC/C=C(\C)CCn1cc(CCc2ccc(-c3ccc(F)cc3)cc2)nn1
R = C/C(=C\CSCCC(=O)O)CCn1cc(CCc2ccc(-c3ccccc3)cc2)nn1
[in] Order each entry by recorded Activity, climbing from the minimum. Field: ranking. Enter the labels in the order requested.
[out] Q, R, P
(Q: 28%, R: 43%, P: 80%)

A = COC(=O)CCSC/C=C(\C)CCn1cc(-c2ccsc2)nn1
B = COC(=O)CCSC/C=C(\C)CCn1cc(CCc2ccc(-c3cccs3)cc2)nn1
[in] Task for the reader: decide whether A or B has the larger Activity. Use the label to indicate which entry you chose.
[out] A
(A: 82%, B: 57%)

* * *

- SUBJECT_OF_TEST: Protein-S-isoprenylcysteine O-methyltransferase (Homo sapiens, UniProt O60725)
- ASSAY: Specific activity at ICMT at 10 uM relative to AFC
READOUT_LABEL: Activity (%)

[in] Give Activity for `C/C(=C\CSCCC(=O)O)CCn1cc(COc2ccccc2)nn1` tested on Protein-S-isoprenylcysteine O-methyltransferase (Homo sapiens, UniProt O60725).
[out] 89

[in] Give Activity for `CCCCCCCCCCc1cn(CC/C(C)=C/CSCCC(=O)OC)nn1` tested on Protein-S-isoprenylcysteine O-methyltransferase (Homo sapiens, UniProt O60725).
[out] 67

[in] Give Activity for `COC(=O)CCSC/C=C(\C)CCn1cc(CCC(C)C)nn1` tested on Protein-S-isoprenylcysteine O-methyltransferase (Homo sapiens, UniProt O60725).
[out] 77

[in] Give Activity for `COC(=O)CCSC/C=C(\C)CCn1cc(-c2cccc3ccccc23)nn1` tested on Protein-S-isoprenylcysteine O-methyltransferase (Homo sapiens, UniProt O60725).
[out] 82

[in] Give Activity for `COC(=O)CCSC/C=C(\C)CCn1cc(-c2ccc(OC)cc2)nn1` tested on Protein-S-isoprenylcysteine O-methyltransferase (Homo sapiens, UniProt O60725).
[out] 91

[in] Give Activity for `CC(C)=CCC/C(C)=C/CCc1cn(CCC(=O)O)nn1` tested on Protein-S-isoprenylcysteine O-methyltransferase (Homo sapiens, UniProt O60725).
[out] 75

[in] Give Activity for `C/C(=C\CSCCC(=O)O)CCn1cc(CCc2ccccc2)nn1` tested on Protein-S-isoprenylcysteine O-methyltransferase (Homo sapiens, UniProt O60725).
[out] 75

[in] Give Activity for `C/C(=C\CSCCC(=O)O)CCn1cc(COc2ccc(-c3ccccc3)cc2)nn1` tested on Protein-S-isoprenylcysteine O-methyltransferase (Homo sapiens, UniProt O60725).
[out] 75

[in] Give Activity for COC(=O)CCSC/C=C(\C)CCn1cc(CCOC2CCCCO2)nn1 (configuration not stated) tested on Protein-S-isoprenylcysteine O-methyltransferase (Homo sapiens, UniProt O60725).
[out] 80

[in] Give Activity for `COC(=O)CCSC/C=C(\C)CCn1cc(COc2ccc(-c3ccccc3)cc2)nn1` tested on Protein-S-isoprenylcysteine O-methyltransferase (Homo sapiens, UniProt O60725).
[out] 67

[in] Give Activity for `COC(=O)CCSC/C=C(\C)CCn1cc(CCc2ccccc2-c2ccccc2)nn1` tested on Protein-S-isoprenylcysteine O-methyltransferase (Homo sapiens, UniProt O60725).
[out] 74

[in] Give Activity for `CC(C)=CCC/C(C)=C/CC/C(C)=C/Cc1cn(CC(=O)O)nn1` tested on Protein-S-isoprenylcysteine O-methyltransferase (Homo sapiens, UniProt O60725).
[out] 65

[in] Give Activity for `CCCCCc1cn(CC/C(C)=C/CSCCC(=O)O)nn1` tested on Protein-S-isoprenylcysteine O-methyltransferase (Homo sapiens, UniProt O60725).
[out] 77

[in] Give Activity for `COc1ccc(-c2cn(CC/C(C)=C/CSCCC(=O)O)nn2)cc1` tested on Protein-S-isoprenylcysteine O-methyltransferase (Homo sapiens, UniProt O60725).
[out] 87

[in] Give Activity for `COC(=O)CCSC/C=C(\C)CCn1cc(COc2ccccc2)nn1` tested on Protein-S-isoprenylcysteine O-methyltransferase (Homo sapiens, UniProt O60725).
[out] 89

[in] Give Activity for `COC(=O)CCSC/C=C(\C)CCn1cc(-c2ccc(C(C)(C)C)cc2)nn1` tested on Protein-S-isoprenylcysteine O-methyltransferase (Homo sapiens, UniProt O60725).
[out] 84

[in] Give Activity for `C/C(=C\CSCCC(=O)O)CCn1cc(CCc2cccc(-c3ccccc3)c2)nn1` tested on Protein-S-isoprenylcysteine O-methyltransferase (Homo sapiens, UniProt O60725).
[out] 74

[in] Give Activity for `CCCCCc1cn(CC/C(C)=C/CSCCC(=O)OC)nn1` tested on Protein-S-isoprenylcysteine O-methyltransferase (Homo sapiens, UniProt O60725).
[out] 76

[in] Give Activity for `COC(=O)CCSC/C=C(\C)CCn1cc(CCc2ccc(-c3ccc(-c4ccccc4)cc3)cc2)nn1` tested on Protein-S-isoprenylcysteine O-methyltransferase (Homo sapiens, UniProt O60725).
[out] 79

[in] Give Activity for `CC(C)=CCC/C(C)=C/CC/C(C)=C/CCc1cn(CCC(=O)O)nn1` tested on Protein-S-isoprenylcysteine O-methyltransferase (Homo sapiens, UniProt O60725).
[out] 69

[in] Give Activity for `C/C(=C\CSCCC(=O)O)CCn1cc(Cc2ccccc2)nn1` tested on Protein-S-isoprenylcysteine O-methyltransferase (Homo sapiens, UniProt O60725).
[out] 82

[in] Give Activity for `COC(=O)CCSC/C=C(\C)CCn1cc(-c2ccccc2)nn1` tested on Protein-S-isoprenylcysteine O-methyltransferase (Homo sapiens, UniProt O60725).
[out] 89

[in] Give Activity for `C/C(=C\CSCCC(=O)O)CCn1cc(CCc2ccc(-c3cccs3)cc2)nn1` tested on Protein-S-isoprenylcysteine O-methyltransferase (Homo sapiens, UniProt O60725).
[out] 63

[in] Give Activity for C/C(=C\CSCCC(=O)O)CCn1cc(CCOC2CCCCO2)nn1 (configuration not stated) tested on Protein-S-isoprenylcysteine O-methyltransferase (Homo sapiens, UniProt O60725).
[out] 90

[in] Give Activity for `CC(C)=CCC/C(C)=C/CC/C(C)=C/Cc1cn(CCCCC(=O)O)nn1` tested on Protein-S-isoprenylcysteine O-methyltransferase (Homo sapiens, UniProt O60725).
[out] 73

[in] Give Activity for `COC(=O)CCSC/C=C(\C)CCn1cc(Cc2ccccc2)nn1` tested on Protein-S-isoprenylcysteine O-methyltransferase (Homo sapiens, UniProt O60725).
[out] 80

[in] Give Activity for `CC(C)=CCC/C(C)=C/CC/C(C)=C/Cc1cn(CCCC(=O)O)nn1` tested on Protein-S-isoprenylcysteine O-methyltransferase (Homo sapiens, UniProt O60725).
[out] 83
